// abundance fitness lookup, one value per entry
B1: Androgen receptor, residues 557 to 632; numbered along this chain, P10275 (parent)
chain: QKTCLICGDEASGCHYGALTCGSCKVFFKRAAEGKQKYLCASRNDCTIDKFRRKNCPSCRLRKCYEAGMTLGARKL

Variants of: B1
Protocol: abundance fitness (aPCA) (normalised: wild type 0, dead -1); higher = more abundant; growth selection in yeast, the domain comes from the species named
Test Conditions: Homo sapiens

{"Change": "H15C", "abundance fitness": -0.037}
{"Change": "D49M", "abundance fitness": -0.448}
{"Change": "I6S", "abundance fitness": -0.617}
